# Test Details: Dynamics in vivo (concentration in plasma over time) of KNI-272 and Ritonavir in dogs
# Test Parameters: dog, plasma, po, 15 mg/kg, KNI-272 15 mg/kg p.o., administered after Ritonavir, dogs
Property Measured: Tmax (min)
Quick reminder: number only, in min, skip the unit.

Return reported Tmax; argument: CSC[C@H](NC(=O)COc1cccc2cnccc12)C(=O)N[C@@H](Cc1ccccc1)[C@H](O)C(=O)N1CSC[C@H]1C(=O)NC(C)(C)C [KNI-272]
30

====

# Test Details: Change of concentration in plasma over time after oral administration to rats (KNI-272 with Indinavir or Nelfinavir)
# Test Parameters: rat, plasma, po, 10 mg/kg, AUC value of KNI-272, KNI-272 10 mg/kg p.o., no Indinavir
Property Measured: AUC (ng·h/mL)
The reply should be a number in ng·h/mL, with the unit left off.

Tell me the measured AUC of CSC[C@H](NC(=O)COc1cccc2cnccc12)C(=O)N[C@@H](Cc1ccccc1)[C@H](O)C(=O)N1CSC[C@H]1C(=O)NC(C)(C)C [KNI-272] , please.
660
